- EXPERIMENTAL_DETAILS: Toxicity in human SH-SY5Y cells assessed as cell viability at 10 uM incubated for 24 hrs by MTT assay
- Type: cell-based
- ASSAY_SETUP: read-out: Activity
PROPERTY_LABEL: viability at 24 h, 10 µM (%)
Reply numerically in %, unit not repeated.

Exam item: Fill in the blank: the reported viability at 24 h, 10 µM of `CCN(CCCCCCNC(=O)/C=C/c1ccc(O)c(OC)c1)Cc1ccccc1OC` is ____.
Marked response: 98.3

###

Target or system Acetylcholinesterase (Electrophorus electricus, UniProt O42275); recorded quantity pIC50.
pIC50 here is simply -log10 of the concentration when that concentration is written in mol/L.

                                   compound  test_result
0  COc1cc(/C=C/C(=O)NCCCCN(C)Cc2ccccc2OC)ccc1O         4.74

Exam item: Lab note: need pIC50 for `COc1cc(/C=C/C(=O)NCCCCCCN(C)Cc2ccccc2OC)ccc1O` on Acetylcholinesterase (Electrophorus electricus, UniProt O42275), anyone have it?
Marked response: 5.07

Exam item: Lab request: please report pIC50 under test system Acetylcholinesterase (Electrophorus electricus, UniProt O42275) for `COc1cc(/C=C/C(=O)NCCCCCCN(C)Cc2ccccc2)ccc1O`
Marked response: 4.82

Exam item: Provide the documented pIC50 with Acetylcholinesterase (Electrophorus electricus, UniProt O42275) as the system for `CCN(CCCCNC(=O)/C=C/c1ccc(O)c(OC)c1)Cc1ccccc1`
Sequence (O42275 whole entry): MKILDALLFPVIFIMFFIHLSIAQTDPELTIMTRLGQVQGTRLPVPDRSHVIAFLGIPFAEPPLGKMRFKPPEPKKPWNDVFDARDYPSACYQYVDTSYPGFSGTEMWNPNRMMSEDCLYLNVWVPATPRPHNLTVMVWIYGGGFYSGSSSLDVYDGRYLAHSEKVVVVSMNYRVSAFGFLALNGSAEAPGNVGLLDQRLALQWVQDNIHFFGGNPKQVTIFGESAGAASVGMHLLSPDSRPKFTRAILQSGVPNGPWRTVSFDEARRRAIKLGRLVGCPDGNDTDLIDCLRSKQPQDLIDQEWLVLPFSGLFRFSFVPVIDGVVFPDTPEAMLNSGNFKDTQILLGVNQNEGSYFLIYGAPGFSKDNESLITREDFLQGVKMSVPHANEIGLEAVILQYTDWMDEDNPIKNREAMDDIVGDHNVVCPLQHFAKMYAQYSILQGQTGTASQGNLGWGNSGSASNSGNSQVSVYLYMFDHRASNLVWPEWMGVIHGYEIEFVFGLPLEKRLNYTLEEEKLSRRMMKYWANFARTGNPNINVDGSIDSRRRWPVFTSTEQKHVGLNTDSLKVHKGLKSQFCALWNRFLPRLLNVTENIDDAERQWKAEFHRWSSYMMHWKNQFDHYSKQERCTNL
Marked response: 4.78

Exam item: Give pIC50 (Acetylcholinesterase (Electrophorus electricus, UniProt O42275)) of the following compound: CCN(CCCCCCNC1=CC(=O)C(NCCCCCCN(CC)Cc2ccccc2OC)=CC1=O)Cc1ccccc1OC [MEMOQUIN]
Marked response: 8.17

Exam item: Tell me reported pIC50 for `COc1cc(/C=C/C(=O)NCCCCN(C)Cc2ccccc2)ccc1O` , tested with Acetylcholinesterase (Electrophorus electricus, UniProt O42275).
Marked response: 4.53

Ref: ChEMBL document CHEMBL3792354
